- TEST_SYSTEM: IDH1 (R132H) mutant (Homo sapiens, UniProt O75874, R132H)
- Construct: His6 with PreScission site (N, cleaved yes)
- Sequence (O75874 whole entry R132H): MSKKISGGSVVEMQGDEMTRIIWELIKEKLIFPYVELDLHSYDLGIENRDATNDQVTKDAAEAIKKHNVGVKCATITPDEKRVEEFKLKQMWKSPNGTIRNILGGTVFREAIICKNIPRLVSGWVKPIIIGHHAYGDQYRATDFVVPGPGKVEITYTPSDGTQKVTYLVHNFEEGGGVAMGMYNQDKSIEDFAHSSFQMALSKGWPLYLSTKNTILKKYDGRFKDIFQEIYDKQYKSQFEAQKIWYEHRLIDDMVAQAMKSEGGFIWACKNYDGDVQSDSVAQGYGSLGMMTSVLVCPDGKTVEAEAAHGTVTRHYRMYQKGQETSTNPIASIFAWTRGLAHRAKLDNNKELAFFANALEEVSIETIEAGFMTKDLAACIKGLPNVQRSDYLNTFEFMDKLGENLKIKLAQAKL
- RUN_DESCRIPTION: Fluorescence biochemical assay (NADPH oxidation)
- TEST_SETTINGS: mIDH R132H 10 nM, 10 μM NADPH, 100 μM α-KG; range where run multiple times
OUTCOME_MEASURE: IC50 (µM)
Answer format: numeric, µM implied, no suffix.

C[C@H](Nc1nccc(N2C(=O)OC[C@@H]2C2CC2)n1)c1cnc(-c2ccnc(C(F)(F)F)c2)s1 [Example 15] : 0.108

# context switch: different compound, same IC50
// query IC50 value for entry C[C@H](Nc1ncc(F)c(N2C(=O)OC[C@@H]2C2CC2)n1)c1cnc(C(C)(F)F)c(Cl)c1 [Example 22]
1.14

###

- TEST_SYSTEM: Mutant IDH1 R132H (Homo sapiens, UniProt O75874, R132H)
- Construct: His6 with PreScission site (N, cleaved yes)
- Sequence (O75874 whole entry R132H): as above
- RUN_DESCRIPTION: Mutant IDH1 biochemical assay: LC-MS detection of 2-HG; note: mIDH R132H 0.25 nM, 5 µM NADPH
- TEST_SETTINGS: mIDH R132H […], 5 uM NADPH, 100 uM alpha-KG, 45 minutes incubation; range where run multiple times
Below is a list of entries, each paired with its recorded IC50 value.

CC(Nc1nccc(N2C(=O)OC[C@]2(C)C2CC2)n1)c1nc(-c2ccc(Cl)cc2)no1 (single isomer, unassigned) [Example 50] : 20.2 to 26 nM
C[C@H](Nc1nccc(N2C(=O)OC[C@]2(C)C2CC2)n1)c1ccc(CN2CCC(N)(CO)CC2)c(F)c1 : 217 nM
C[C@H](Nc1nccc(N2C(=O)OCC2(C)C2CC2)n1)c1ccc(CN2CCN(C)C(C)(C)C2)cc1 (single isomer, unassigned) [Example 56] : 527 nM
CC(Nc1nccc(N2C(=O)OC[C@@]2(C)C2CC2)n1)c1nc(-c2ccc(Cl)c(OC(F)(F)F)c2)no1 (single isomer, unassigned) [Example 66] : 85 nM
CC(Nc1nccc(N2C(=O)OC[C@]2(C)C2CC2)n1)c1nc(-c2ccc(Cl)c(OC(F)(F)F)c2)no1 (single isomer, unassigned) [Example 64] : 25.2 nM
C[C@H](Nc1ncc(F)c(N2C(=O)OCC2(C)C2CC2)n1)c1ccc(CN2CCC(C)(N)CC2)cc1F (single isomer, unassigned) [Example 61] : 696 nM
Cc1cc(-c2cnc(C(C)Nc3nccc(N4C(=O)OC[C@]4(C)C4CC4)n3)nc2)ccc1F (single isomer, unassigned) [Example 53] : 22.7 to 35.4 nM
C[C@H](Nc1nccc(N2C(=O)OC[C@]2(C)C2CC2)n1)c1ccc(CN2CCC(C)(O)CC2)cc1F : 192 nM
C[C@H](Nc1nccc(N2C(=O)OC[C@]2(C)C2CC2)n1)c1ccc(CN2CCC(N)CC2)c(F)c1 : 376 nM
C[C@H](Nc1nccc(N2C(=O)OC[C@]2(C)C2CC2)n1)c1ccc(CN2CCC(O)(C(F)(F)F)CC2)c(F)c1 : 13.3 nM

// query IC50 value for entry C[C@H](Nc1nccc(N2C(=O)OCC2(C)C2CC2)n1)c1ccc(CN2CCN(C)CC2)cc1 (single isomer, unassigned) [Example 48]
2660 nM

Same question for C[C@H](Nc1ncc(F)c(N2C(=O)OCC2(C)C2CC2)n1)c1ccc(CN2CCC(C)(N)CC2)c(F)c1 (single isomer, unassigned) [Example 60] please.
1520 nM

Same question for CC(Nc1nccc(N2C(=O)OC[C@@]2(C)C2CC2)n1)c1nc(-c2ccc(Cl)cc2)no1 (single isomer, unassigned) [Example 51] please.
3160 to 3260 nM

Same question for Cc1cc(N2C(=O)OC[C@@H]2C2CC2)nc(N[C@@H](C)c2cn(-c3ccc(Cl)cc3)nn2)n1 please.
76.7 nM
